Exercise: state measured Inhibition for each of the molecules provided.
System: Plasmodium falciparum
Test: GSK_TCMDC: Inhibition of Plasmodium falciparum Dd2 in whole red blood cells, using parasite LDH activity as an index of growth. Test compounds present at 2uM
Assay type: functional
Hi! Could you send only the number? It should be in %, unit omitted.

Note to self: Inhibition of COc1ccc2nccc(N3CCCN(CCNS(=O)(=O)c4ccc5c(c4)NC(=O)CS5)CC3)c2n1.Cl with Plasmodium falciparum was 15

Note to self: Inhibition of COc1ccc2nccc([C@@H](O)CN3CCC(NC(=O)c4ccc(-c5ccc(C#N)cc5)cc4)CC3)c2c1 with Plasmodium falciparum was 91

Note to self: Inhibition of COc1ccc2c(CCNc3nc(SC)ncc3C(=O)NCCc3ccc(F)cc3)c[nH]c2c1.O=C(O)C(F)(F)F with Plasmodium falciparum was 49

Note to self: Inhibition of NS(=O)(=O)c1cccc(Nc2nccc(-c3cnn4ncccc34)n2)c1 with Plasmodium falciparum was 89

Note to self: Inhibition of CCOC(=O)c1ccc(N=C2SC(=Cc3cc(Br)ccc3O)C(=O)N2C)cc1 with Plasmodium falciparum was 96

Note to self: Inhibition of COc1ccc(O)c(Cc2cnc3nc(N)nc(N)c3c2C)c1.O=C(O)C(F)(F)F with Plasmodium falciparum was 74

Note to self: Inhibition of CN(C)c1cc2c(Nc3ccc4nc(Cc5ccccc5)[nH]c4c3)ncnc2cn1 [GW301888X] with Plasmodium falciparum was 29

Note to self: Inhibition of CC(=O)CCc1ccc(OCCN(Cc2ccccc2C(F)(F)F)c2ccc(C#N)c(C(F)(F)F)c2)cc1 with Plasmodium falciparum was 87

Note to self: Inhibition of O=C(Nc1ccc(-c2cccc(-c3nc4ccccc4[nH]3)c2)cc1)NC1CC1c1ccccc1 (stereo not drawn) with Plasmodium falciparum was 6

Note to self: Inhibition of FC(F)(F)c1ccc2[nH]c(-c3ccc(-c4cccc(CN5CCCCC5)c4)cc3)nc2c1.O=C(O)C(F)(F)F with Plasmodium falciparum was 99

Note to self: Inhibition of O=C(CCNc1ccnc(NCCc2ccccc2)n1)Nc1ccccc1.O=C(O)C(F)(F)F with Plasmodium falciparum was 19

Note to self: Inhibition of N=C(N)NC(=O)Nc1cc(Cl)c(Cl)c(Cl)c1 with Plasmodium falciparum was 100

Note to self: Inhibition of CCN(CC)CCCC(C)N=c1cc(C=Cc2ccc([N+](=O)[O-])cc2)[nH]c2ccc(OC)cc12 (stereo not drawn) with Plasmodium falciparum was 100

Note to self: Inhibition of CN1CCCN(Cc2ccc(-c3ccc(NC(=O)c4ccc(Cl)cc4)cc3)cc2)CC1.O=C(O)C(F)(F)F with Plasmodium falciparum was 67

Note to self: Inhibition of Cl.O=C(Nc1ccc(C(=O)Nc2cccc(C3=NCCN3)c2)cc1)Nc1ccc(C2=NCCN2)cc1 with Plasmodium falciparum was 98

Note to self: Inhibition of COc1ccc(CNCc2cccc(-c3cccc(-c4nc5cc(C(F)(F)F)ccc5[nH]4)c3)c2)cc1.O=C(O)C(F)(F)F with Plasmodium falciparum was 91

Note to self: Inhibition of Cc1cc(=NN=Cc2ccccc2Cl)c2cccc(C)c2[nH]1 with Plasmodium falciparum was 98

Note to self: Inhibition of O=C(NCCCCN1CCC(c2ccc(Br)cc2)CC1)c1ccc(NC(=O)c2ccc(Cl)cc2)cc1 with Plasmodium falciparum was 86

Note to self: Inhibition of Cc1ccc(Nc2cc(C)nn2-c2nc(C)cc(O)n2)cc1 with Plasmodium falciparum was 95

Note to self: Inhibition of Cc1onc(-c2c(Cl)cccc2Cl)c1C(=O)NC1=NC(C)(C)ON1c1ccccc1 with Plasmodium falciparum was 36

Note to self: Inhibition of CC(C)CCCC(C)(C)NC[C@@H](O)[C@H](Cc1ccccc1)NC(=O)c1cc(NC(C)C)cc(N2CCCCS2(=O)=O)c1.O=CO with Plasmodium falciparum was 98

Note to self: Inhibition of CCN(CCS(C)(=O)=O)Cc1ccc(-c2ccc3ncnc(Nc4ccc(OCc5cccc(F)c5)c(Cl)c4)c3c2)o1.Cc1ccc(S(=O)(=O)O)cc1 with Plasmodium falciparum was 63

Note to self: Inhibition of COc1cccc2cc(C(=O)N[C@@H](CC(C)C)C(=O)N[C@H](C=NNC(=O)OC(C)(C)C)CC(C)C)oc12 with Plasmodium falciparum was 57

Recorded values, source ChEMBL document CHEMBL1157539.
